# TGT: AHR (Homo sapiens)
# Construct: endogenous in cells; host or cells: HepG2 (human), transfected with a DRE-luciferase reporter only
# Sequence (P35869 11-848): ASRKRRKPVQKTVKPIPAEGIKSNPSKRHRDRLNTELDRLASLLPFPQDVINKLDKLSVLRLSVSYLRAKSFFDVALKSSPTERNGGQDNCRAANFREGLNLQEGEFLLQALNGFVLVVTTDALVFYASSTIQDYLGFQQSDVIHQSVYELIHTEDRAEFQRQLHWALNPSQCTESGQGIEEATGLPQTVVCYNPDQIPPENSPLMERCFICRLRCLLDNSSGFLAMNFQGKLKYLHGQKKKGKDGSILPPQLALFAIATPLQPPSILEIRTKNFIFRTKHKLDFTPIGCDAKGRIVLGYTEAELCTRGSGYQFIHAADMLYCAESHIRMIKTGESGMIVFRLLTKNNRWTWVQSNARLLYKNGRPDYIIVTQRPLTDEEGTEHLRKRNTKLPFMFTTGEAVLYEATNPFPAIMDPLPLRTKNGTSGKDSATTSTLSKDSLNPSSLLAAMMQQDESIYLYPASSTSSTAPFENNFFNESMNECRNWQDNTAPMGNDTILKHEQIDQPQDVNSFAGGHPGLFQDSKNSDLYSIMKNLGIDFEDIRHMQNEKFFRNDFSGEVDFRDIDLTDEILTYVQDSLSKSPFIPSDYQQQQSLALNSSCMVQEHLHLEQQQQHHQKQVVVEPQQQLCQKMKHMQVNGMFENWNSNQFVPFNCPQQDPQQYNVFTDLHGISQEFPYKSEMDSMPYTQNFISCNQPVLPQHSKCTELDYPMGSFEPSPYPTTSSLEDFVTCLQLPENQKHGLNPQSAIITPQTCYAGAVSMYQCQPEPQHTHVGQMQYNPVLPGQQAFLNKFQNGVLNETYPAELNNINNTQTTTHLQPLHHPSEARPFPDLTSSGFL
# TEST METHOD NOTES: DRE-Luciferase Reporter Assay, HepG2 (agonist)
# Type: cell-based
# ASSAY CONDITIONS: HepG2, Table 2; read-out: DRE-Luc HepG2 - Agonist: Average EC50
READOUT TYPE: EC50

Examples from the recorded data:
O=[N+]([O-])c1cccc(-c2csc(Nc3cccc(C(F)(F)F)c3)n2)c1 < 10 nM
CN(C)c1cccc(-c2csc(Nc3cccc(C(F)(F)F)c3)n2)c1 10 to 100 nM
C[N+](C)(C)CCCNC(=O)N(c1cccc(C(F)(F)F)c1)c1nc(-c2cccc(Cl)c2)cs1 10 to 100 nM

# ---- query compound ----
### Prompt I am curious: what EC50 value has been reported for CN(C)CCOc1cccc(-c2cnc(Nc3ccc(C(F)(F)F)cc3)o2)c1 ?
### Response > 1000 nM
